Reference for the values: ChEMBL document CHEMBL1153674

# procedure-details: Half-life was determined
# Format: ADME
# test-settings: human
property-label: half-life (min)
Field format: number, assumed min, no unit text.

{"compound": "COc1ccc(C(OCC2OC(n3ccc(=O)[nH]c3=O)C(NC(=O)[C@@H](CC(=O)OCc3ccccc3)NC(=O)OCC3c4ccccc4-c4ccccc43)C2O)(c2ccccc2)c2ccc(OC)cc2)cc1 (some centres undefined)", "half-life (min)": 8}

What measured half-life goes with COc1ccc(C(OCC2OC(n3ccc(=O)[nH]c3=O)C(NC(=O)[C@H](NC(=O)OCC3c4ccccc4-c4ccccc43)c3ccccc3)C2O)(c2ccccc2)c2ccc(OC)cc2)cc1 (some centres undefined) ?
3

What measured half-life goes with COc1ccc(C(OCC2OC(n3ccc(=O)[nH]c3=O)C(NC(=O)[C@@H](CCCCNC(=O)OCC3c4ccccc4-c4ccccc43)NC(=O)OCC3c4ccccc4-c4ccccc43)C2O)(c2ccccc2)c2ccc(OC)cc2)cc1 (some centres undefined) ?
11.5

What measured half-life goes with COc1ccc(C(OCC2OC(n3ccc(=O)[nH]c3=O)C(NC(=O)[C@@H](C)NC(=O)OCC3c4ccccc4-c4ccccc43)C2O)(c2ccccc2)c2ccc(OC)cc2)cc1 (some centres undefined) ?
13

What measured half-life goes with O=C(C[C@@H](NC(=O)OCC1c2ccccc2-c2ccccc21)C(=O)NC1C(O)C(CO)OC1n1ccc(=O)[nH]c1=O)OCc1ccccc1 (some centres undefined) ?
1

What measured half-life goes with N[C@@H]1[C@H](O)[C@@H](CO)O[C@H]1n1ccc(=O)[nH]c1=O ?
1.5

What measured half-life goes with C[C@@H](NC(=O)OCC1c2ccccc2-c2ccccc21)C(=O)NC1C(O)C(CO)OC1n1ccc(=O)[nH]c1=O (some centres undefined) ?
1.5

What measured half-life goes with O=C(N[C@@H](C(=O)NC1C(O)C(CO)OC1n1ccc(=O)[nH]c1=O)c1ccccc1)OCC1c2ccccc2-c2ccccc21 (some centres undefined) ?
2

What measured half-life goes with O=C(NCCCC[C@@H](NC(=O)OCC1c2ccccc2-c2ccccc21)C(=O)NC1C(O)C(CO)OC1n1ccc(=O)[nH]c1=O)OCC1c2ccccc2-c2ccccc21 (some centres undefined) ?
1
